System: ATP;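 note: ATP exposure 15 min at 22 °C before imaging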
Test: switch fluorescence ratio, 500 uM ATP over buffer (Cy3 cluster intensity, sum of 5 cycles each) (fold (ratio)); higher = stronger signal-on switching upon ATP binding; sequences stand for … in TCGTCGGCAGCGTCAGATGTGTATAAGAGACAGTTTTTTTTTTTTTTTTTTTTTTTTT…TC
Conditions: aptamer strand: ATP DNA aptamer (quencher-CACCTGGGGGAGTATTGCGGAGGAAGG + anchor), 100 nM annealed; ATP concentration: 500 uM
Measured switch fluorescence ratio, listed per entry.
Write the number on its own, no unit after it.

Incoming: Give recorded switch fluorescence ratio. `GGCTGTGAAC`
Outgoing: 1.02

Incoming: Give recorded switch fluorescence ratio. `AAACCAGTG`
Outgoing: 1.18
